# TARGET SYSTEM: MMP-9 (HNG; human neutrophil gelatinase) (Homo sapiens)
# Sequence (P14780 94-707): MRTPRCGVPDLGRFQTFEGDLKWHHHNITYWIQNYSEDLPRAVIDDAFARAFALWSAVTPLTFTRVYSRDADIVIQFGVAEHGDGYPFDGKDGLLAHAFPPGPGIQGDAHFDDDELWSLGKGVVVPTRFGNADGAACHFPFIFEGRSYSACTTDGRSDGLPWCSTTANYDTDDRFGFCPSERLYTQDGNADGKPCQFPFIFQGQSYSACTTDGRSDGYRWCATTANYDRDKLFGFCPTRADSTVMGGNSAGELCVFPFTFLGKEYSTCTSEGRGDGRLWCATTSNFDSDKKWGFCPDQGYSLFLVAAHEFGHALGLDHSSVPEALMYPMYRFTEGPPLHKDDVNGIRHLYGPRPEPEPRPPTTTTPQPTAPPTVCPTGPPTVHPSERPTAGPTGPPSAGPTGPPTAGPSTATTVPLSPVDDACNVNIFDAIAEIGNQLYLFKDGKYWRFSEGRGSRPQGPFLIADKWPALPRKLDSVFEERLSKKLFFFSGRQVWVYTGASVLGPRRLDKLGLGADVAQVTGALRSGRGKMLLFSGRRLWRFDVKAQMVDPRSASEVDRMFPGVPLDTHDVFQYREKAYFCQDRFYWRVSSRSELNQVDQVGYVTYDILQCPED
# PROTOCOL NOTES: Enzyme kinetic assay, inhibition of MMP-9
# APPLIED CONDITIONS: read-out: Ki (value in parentheses), HNG MMP-9
The following compounds are shown together with reported pKi values.
// pKi: -log10(molar conc.)

Return reported pKi; argument: CN([C@H]1CN(C(N)=O)C[C@@H]1S)S(=O)(=O)c1ccc(Oc2ccccc2)cc1 (racemic) [Example 4]
8.89

I have this compound here, O=C(OCc1ccccc1)N1C[C@H](S)[C@H](NS(=O)(=O)c2ccc(Oc3ccccc3)cc2)C1 [Example 13] , and I need its recorded pKi.
5.51

Which pKi value belongs to O=C(NCCN1C(=O)c2ccccc2C1=O)N1C[C@H](NS(=O)(=O)c2ccc(Oc3ccccc3)cc2)[C@@H](S)C1 (racemic) [Example 2] ?
8.62
